assay: Single dose plasma pharmacokinetics in healthy volunteers; conditions: human, in vivo; intravenous infusion 250 mg over 60 min, mean
MEASUREMENT_KIND: AUC(0-inf)
Give me the value, and tack the unit on after it.

Identify measured AUC(0-inf) corresponding to CN[C@H](CC(C)C)C(=O)N[C@H]1C(=O)N[C@@H](CC(N)=O)C(=O)N[C@H]2C(=O)N[C@H]3C(=O)N[C@H](C(=O)N[C@H](C(=O)O)c4cc(O)cc(O)c4-c4cc3ccc4O)[C@H](O)c3ccc(c(Cl)c3)Oc3cc2cc(c3OC2O[C@H](CO)[C@@H](O)[C@H](O)[C@H]2O[C@H]2C[C@](C)(N)[C@H](O)[C@H](C)O2)Oc2ccc(cc2Cl)[C@H]1O (stereo partly shown) 44400 ng·h/mL

---

Experiment: Single dose plasma pharmacokinetics in healthy volunteers
Conditions: human, in vivo; intravenous infusion 250 mg over 60 min, mean
Description: FIG. 11 is a graph depicting plasma concentrations as a function of time (semi-log) after a single dose administration of a vancomycin dry powder composition (Lot G-11-026-1) or intravenous administration of vancomycin (inhaled vancomycin dose 16 mg, circle; inhaled vancomycin dose 32 mg, triangle; inhaled vancomycin dose 80 mg, square; Intravenous infusion 250 mg over 60 min, circle with line). […]
MEASUREMENT_KIND: half-life (h)
Give bare numbers, in h.

Identify measured half-life corresponding to CN[C@H](CC(C)C)C(=O)N[C@H]1C(=O)N[C@@H](CC(N)=O)C(=O)N[C@H]2C(=O)N[C@H]3C(=O)N[C@H](C(=O)N[C@H](C(=O)O)c4cc(O)cc(O)c4-c4cc3ccc4O)[C@H](O)c3ccc(c(Cl)c3)Oc3cc2cc(c3OC2O[C@H](CO)[C@@H](O)[C@H](O)[C@H]2O[C@H]2C[C@](C)(N)[C@H](O)[C@H](C)O2)Oc2ccc(cc2Cl)[C@H]1O (stereo partly shown) 7.23

---

Test: Single dose plasma pharmacokinetics in healthy volunteers
Conditions: human, in vivo; intravenous infusion 250 mg over 60 min, mean; t = 24 h
Method: FIG. 11 is a graph depicting plasma concentrations as a function of time (semi-log) after a single dose administration of a vancomycin dry powder composition (Lot G-11-026-1) or intravenous administration of vancomycin (inhaled vancomycin dose 16 mg, circle; inhaled vancomycin dose 32 mg, triangle; inhaled vancomycin dose 80 mg, square; Intravenous infusion 250 mg over 60 min, circle with line). […]
MEASUREMENT_KIND: AUC(0-t) (ng·h/mL)
Numbers only, in ng·h/mL.

Identify measured AUC(0-t) corresponding to CN[C@H](CC(C)C)C(=O)N[C@H]1C(=O)N[C@@H](CC(N)=O)C(=O)N[C@H]2C(=O)N[C@H]3C(=O)N[C@H](C(=O)N[C@H](C(=O)O)c4cc(O)cc(O)c4-c4cc3ccc4O)[C@H](O)c3ccc(c(Cl)c3)Oc3cc2cc(c3OC2O[C@H](CO)[C@@H](O)[C@H](O)[C@H]2O[C@H]2C[C@](C)(N)[C@H](O)[C@H](C)O2)Oc2ccc(cc2Cl)[C@H]1O (stereo partly shown) 41000
